A collection of compounds and their measured IC50
biological target: human Fibroblast activation protein alpha (hFAP) (Homo sapiens (Human)); also: hFAP 2.4 pM
Sequence (Q12884 38-760): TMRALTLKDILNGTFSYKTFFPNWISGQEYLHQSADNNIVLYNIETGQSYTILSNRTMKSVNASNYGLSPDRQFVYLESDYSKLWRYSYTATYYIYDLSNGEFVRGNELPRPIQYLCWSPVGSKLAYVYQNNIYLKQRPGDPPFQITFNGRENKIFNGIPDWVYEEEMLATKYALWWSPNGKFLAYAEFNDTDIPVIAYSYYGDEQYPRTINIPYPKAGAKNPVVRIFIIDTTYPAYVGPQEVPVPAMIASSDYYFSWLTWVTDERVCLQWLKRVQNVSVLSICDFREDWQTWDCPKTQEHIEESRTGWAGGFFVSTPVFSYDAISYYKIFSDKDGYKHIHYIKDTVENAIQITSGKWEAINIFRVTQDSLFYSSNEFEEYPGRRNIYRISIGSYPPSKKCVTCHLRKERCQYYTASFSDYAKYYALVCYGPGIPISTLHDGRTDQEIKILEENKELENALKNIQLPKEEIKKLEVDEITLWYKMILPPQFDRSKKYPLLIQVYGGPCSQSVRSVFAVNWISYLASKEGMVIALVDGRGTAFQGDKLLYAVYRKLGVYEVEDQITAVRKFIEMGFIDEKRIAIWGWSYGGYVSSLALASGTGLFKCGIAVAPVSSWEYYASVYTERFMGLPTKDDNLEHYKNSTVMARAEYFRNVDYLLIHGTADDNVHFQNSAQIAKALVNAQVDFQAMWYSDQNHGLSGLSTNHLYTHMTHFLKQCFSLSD
Return type: number; implicit unit pM.

## Task Notebook: pull reported IC50 for human Fibroblast activation protein alpha (hFAP) (Homo sapiens (Human)), entry N#C[C@@H]1CSCN1C(=O)CNC(=O)c1c(F)cnc2ccc(N3CCOCC3)cc12 [Example 2]
## Result 520

## Task Notebook: pull reported IC50 for human Fibroblast activation protein alpha (hFAP) (Homo sapiens (Human)), entry N#C[C@@H]1CSCN1C(=O)CNC(=O)c1ccnc2ccc(N3C4CCC3COC4)cc12 [Example 98]
## Result 110

## Task Notebook: pull reported IC50 for human Fibroblast activation protein alpha (hFAP) (Homo sapiens (Human)), entry C[C@]1(F)CCN(c2ccc3nccc(C(=O)NCC(=O)N4CSC[C@H]4C#N)c3c2)C1 (mixture of isomers) [Example 198]
## Result 56

###

test: Metabolic stability in rat hepatocytes (rHep); details: n = 1 or geometric mean of n = 2-3
property: rHep CLint

structure.smiles.string	rHep CLint
CC1(C)COC12CN(c1ccc3nccc(C(=O)NCC(=O)N4CSC[C@H]4C#N)c3c1)C2	6 μL/min/1E6
N#C[C@@H]1CSCN1C(=O)CNC(=O)c1ccnc2ccc(N3CC4(CC(F)C4)C3)cc12	3.2 μL/min/1E6
CC(F)(F)CC1CN(c2ccc3nccc(C(=O)NCC(=O)N4CSC[C@H]4C#N)c3c2)C1	7.7 μL/min/1E6
CC[C@H]1COCCN1c1ccc2nccc(C(=O)NCC(=O)N3CSC[C@H]3C#N)c2c1	21 μL/min/1E6
N#C[C@@H]1CSCN1C(=O)CNC(=O)c1ccnc2ccc(N3C[C@H](F)[C@@H](F)C3)cc12	19 μL/min/1E6

## Task Recorded rHep CLint of C[C@@H]1CN(c2ccc3nccc(C(=O)NCC(=O)N4CSC[C@H]4C#N)c3c2)CCCO1 , please.
## Result 29 μL/min/1E6

## Task Recorded rHep CLint of Cc1nc(C)c(-c2ccc3nccc(C(=O)NCC(=O)N4CSC[C@H]4C#N)c3c2)o1 , please.
## Result 3.9 μL/min/1E6

## Task Recorded rHep CLint of N#C[C@@H]1CSCN1C(=O)CNC(=O)c1ccnc2ccc(-n3ccc(C(F)(F)F)n3)cc12 , please.
## Result 21 μL/min/1E6

###

Target or system Prolyl endopeptidase, Prolyl Oligopeptidase (hPREP) (Homo sapiens (Human), UniProt P48147): recorded IC50 listed per item.
Return type: number; implicit unit nM.

Reference set, count: 10
molecule	property	numeric.value
N#C[C@@H]1CSCN1C(=O)CNC(=O)c1ccnc2ccc(N3CCC(F)(F)CC3)cc12	IC50	1700
N#C[C@@H]1CSCN1C(=O)CNC(=O)c1ccnc2ccc(N3CCC4(CC3)OCCO4)cc12	IC50	1200
N#C[C@@H]1CSCN1C(=O)CNC(=O)c1ccnc2ccc(N3CC4(COC4)C3)cc12	IC50	1700
N#C[C@@H]1CSCN1C(=O)CNC(=O)c1ccnc2ccc(N3CC4(CCCC4(F)F)C3)cc12	IC50	460
CC1(C)COCCN1c1ccc2nccc(C(=O)NCC(=O)N3CSC[C@H]3C#N)c2c1	IC50	1100
N#C[C@@H]1CSCN1C(=O)CNC(=O)c1ccnc2ccc(N3C[C@@H]4CC[C@H]3C4)cc12 (mixture of isomers)	IC50	220
CC(=O)N1CC2(C1)CN(c1ccc3nccc(C(=O)NCC(=O)N4CSC[C@H]4C#N)c3c1)C2	IC50	1100
CC1(C)CCN(c2ccc3nccc(C(=O)NCC(=O)N4CSC[C@H]4C#N)c3c2)CC1	IC50	220
C[C@@H]1CCN(c2ccc3nccc(C(=O)NCC(=O)N4CSC[C@H]4C#N)c3c2)C1=O (single isomer, unassigned)	IC50	550
C[C@H]1CC(F)(F)CCN1c1ccc2nccc(C(=O)NCC(=O)N3CSC[C@H]3C#N)c2c1 (mixture of isomers)	IC50	540

## Task Notebook: pull reported IC50 for Prolyl endopeptidase, Prolyl Oligopeptidase (hPREP) (Homo sapiens (Human), UniProt P48147), entry N#C[C@@H]1CSCN1C(=O)CNC(=O)c1ccnc2ccc(-c3cnn(C4CCOCC4)c3)cc12
## Result 940

## Task Notebook: pull reported IC50 for Prolyl endopeptidase, Prolyl Oligopeptidase (hPREP) (Homo sapiens (Human), UniProt P48147), entry N#C[C@@H]1CSCN1C(=O)CNC(=O)c1ccnc2ccc(N3CC4CC(C3)O4)cc12
## Result 470

## Task Notebook: pull reported IC50 for Prolyl endopeptidase, Prolyl Oligopeptidase (hPREP) (Homo sapiens (Human), UniProt P48147), entry N#C[C@@H]1CSCN1C(=O)CNC(=O)c1ccnc2ccc(N3CC(F)(F)C3)cc12
## Result 160

## Task Notebook: pull reported IC50 for Prolyl endopeptidase, Prolyl Oligopeptidase (hPREP) (Homo sapiens (Human), UniProt P48147), entry N#C[C@@H]1CSCN1C(=O)CNC(=O)c1ccnc2ccc(N3C4CCC3CC4)cc12
## Result 540

## Task Notebook: pull reported IC50 for Prolyl endopeptidase, Prolyl Oligopeptidase (hPREP) (Homo sapiens (Human), UniProt P48147), entry N#C[C@@H]1CSCN1C(=O)CNC(=O)c1ccnc2ccc(N3CCCC4(CC4)C3)cc12
## Result 110
